Recorded Kd values (FLT3 Autoinh. (Homo sapiens, UniProt P36888)) are given below.
measured-parameter: Kd (nM)

A selection of reference data follows.
1. CC1(c2cn3c(-c4cccc(N[C@H]5CNC[C@@H]5F)n4)cnc3cn2)CC1 ... 1
2. CC(C)(O)c1cn2c(-c3cccc(N[C@H]4CNCC[C@@H]4F)n3)cnc2cn1 ... 10
3. FC(F)c1cn2c(-c3cccc(N[C@H]4CNC[C@@H]4F)n3)cnc2cn1 ... 3

A. FC(F)(F)C1(c2cn3c(-c4cccc(N[C@@H]5CCNC5)n4)cnc3cn2)CC1
B. CC(C)(O)c1cn2c(-c3cccc(N[C@@H]4CCCNC4)n3)cnc2cn1
Query: Given the listed items, does A or B have the lesser reported Kd? Answer with the label corresponding to your selection.
Response: A
(A: 4.2 nM, B: 22 nM)

---

- study-system: FLT3 (Homo sapiens, UniProt P36888)
- Sequence (P36888 27-993): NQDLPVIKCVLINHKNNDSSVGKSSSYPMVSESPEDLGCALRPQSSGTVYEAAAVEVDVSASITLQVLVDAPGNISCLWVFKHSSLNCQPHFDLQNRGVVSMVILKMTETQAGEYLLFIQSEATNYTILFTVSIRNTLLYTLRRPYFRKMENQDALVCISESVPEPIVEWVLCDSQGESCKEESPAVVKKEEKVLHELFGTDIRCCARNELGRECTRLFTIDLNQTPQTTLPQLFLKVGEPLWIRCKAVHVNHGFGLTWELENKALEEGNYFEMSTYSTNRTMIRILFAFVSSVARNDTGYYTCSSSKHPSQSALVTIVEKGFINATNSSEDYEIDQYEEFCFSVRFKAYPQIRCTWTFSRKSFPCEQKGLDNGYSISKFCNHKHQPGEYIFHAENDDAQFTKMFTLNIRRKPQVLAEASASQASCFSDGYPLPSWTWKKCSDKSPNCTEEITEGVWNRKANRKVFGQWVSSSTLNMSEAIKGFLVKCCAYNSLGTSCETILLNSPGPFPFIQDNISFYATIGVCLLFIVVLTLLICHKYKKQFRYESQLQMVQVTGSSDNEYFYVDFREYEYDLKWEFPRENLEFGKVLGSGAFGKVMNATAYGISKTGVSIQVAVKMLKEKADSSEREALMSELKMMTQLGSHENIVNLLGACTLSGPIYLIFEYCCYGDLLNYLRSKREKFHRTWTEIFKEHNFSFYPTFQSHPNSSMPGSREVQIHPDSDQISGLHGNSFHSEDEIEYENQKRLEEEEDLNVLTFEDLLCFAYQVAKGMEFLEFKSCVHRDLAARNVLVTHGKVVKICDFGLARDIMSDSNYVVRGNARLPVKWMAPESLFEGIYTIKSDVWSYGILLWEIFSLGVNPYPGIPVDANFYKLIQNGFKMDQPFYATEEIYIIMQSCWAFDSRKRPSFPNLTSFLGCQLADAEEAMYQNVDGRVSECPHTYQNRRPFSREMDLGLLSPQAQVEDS
- method: RBC HotSpot Kinase Assay, FLT3
- Assay type: biochemical
- Design: purchased Reaction Biology (RBC), HotSpot kinase assay
- condition-details: isolated kinase, 33P-ATP
pIC50: −log10 of the molar value.
measured-parameter: pIC50

1. CC(C)(O)c1cn2c(-c3cccc(N[C@@H]4CCNC4)n3)cnc2cn1
2. O=C1COCCN1c1cn2c(-c3cccc(N[C@H]4CNC[C@@H]4F)n3)cnc2cn1
Query: // compare measured pIC50 between 1 and 2 ; output the lower one The response must carry the label of the picked entry.
Response: 2
